test: Dynamic solubility at 37 °C (HPLC; residual solid by XRPD); assay type: physicochemical; details: acetic acid-sodium acetate buffer, 37 °C, pH 4, aqueous buffer, thermodynamic from solid, acetic acid-sodium acetate buffer pH = 4.0, 37 °C, 2 h
reported-property: solubility at 2 h
Could you kindly put the unit after your number?

Field request: solubility at 2 h | item: CCc1nc(-c2ccc(-c3ccc(CCC(N)(CO)CO)cc3)cc2)co1.Cl [crystal form A]
2480 µg/mL

###

assay: Dynamic solubility at 37 °C (HPLC; residual solid by XRPD); type: physicochemical; conditions: Simulated Gastric Fluid (SGF), 37 °C, pH 1, simulated gastric fluid, thermodynamic from solid, SGF (pH = 1.0), 1 h
reported-property: solubility at 1 h (µg/mL)
Respond with the bare value in µg/mL.

Suppose we examine the molecule CCc1nc(-c2ccc(-c3ccc(CCC(N)(CO)CO)cc3)cc2)co1.Cl [crystal form A] ; what solubility at 1 h value has been reported?
240
